Test: Biodistribution in ICR mice after an iv injection
Format: in vivo
Details: Skin, 1 hr after iv injection
experimental.endpoint: % dose/g (% dose/g)

Worked set:
CNc1ccc(-c2ccc3cc(OCCOCCOCCF)ccc3c2)cc1
1.56
CNc1ccc2cc(-c3ccc(OCCOCCOCC[18F])cc3)ccc2c1 [[^18F]19a]
1.32

[A] CN(C)c1ccc(-c2ccc3nc(OCCOCCOCC[18F])ccc3c2)cc1 [[^18F]32a]
[B] CNc1ccc(-c2ccc3nc(OCCOCCOCC[18F])ccc3c2)cc1 [[^18F]34a]
**Query** Which shows the larger % dose/g value: A or B ? Give the chosen item's label as your response.
**Result** B

====

Test: Biodistribution in ICR mice after an iv injection
Type: in vivo
Settings: Skin, 2 min after iv injection
experimental.endpoint: % dose/organ (% dose/organ)

CNc1ccc2cc(-c3ccc(OCCOCCOCC[18F])cc3)ccc2c1 [[^18F]19a]
2.51
CN(C)c1ccc(-c2ccc3nc(OCCOCCOCC[18F])ccc3c2)cc1 [[^18F]32a]
1.68

[P] CNc1ccc(-c2ccc3nc(OCCOCCOCC[18F])ccc3c2)cc1 [[^18F]34a]
[Q] CNc1ccc(-c2ccc3cc(OCCOCCOCCF)ccc3c2)cc1
**Query** Which value of % dose/organ is greater, the one for P or the one for Q ? Returns: label corresponding to the selected item.
**Result** Q
(Q: 3.66 % dose/organ, P: 2.13 % dose/organ)

====

Experiment: Biodistribution in ICR mice after an iv injection
Format: in vivo
Settings: Liver, 2 min after iv injection
experimental.endpoint: % dose/g (% dose/g)

CN(C)c1ccc(-c2ccc3nc(OCCOCCOCC[18F])ccc3c2)cc1 [[^18F]32a]
16.3
CNc1ccc(-c2ccc3nc(OCCOCCOCC[18F])ccc3c2)cc1 [[^18F]34a]
18.2
CNc1ccc2cc(-c3ccc(OCCOCCOCC[18F])cc3)ccc2c1 [[^18F]19a]
27.0
CNc1ccc(-c2ccc3cc(OCCOCCOCCF)ccc3c2)cc1
19.7

====

Test: Biodistribution in ICR mice after an iv injection
Type: in vivo
Details: Liver, 2 hr after iv injection
experimental.endpoint: % dose/organ (% dose/organ)

Please review the following examples before continuing.
CNc1ccc(-c2ccc3cc(OCCOCCOCCF)ccc3c2)cc1
13.5
CNc1ccc(-c2ccc3nc(OCCOCCOCC[18F])ccc3c2)cc1 [[^18F]34a]
8.29

[P] CNc1ccc2cc(-c3ccc(OCCOCCOCC[18F])cc3)ccc2c1 [[^18F]19a]
[Q] CN(C)c1ccc(-c2ccc3nc(OCCOCCOCC[18F])ccc3c2)cc1 [[^18F]32a]
**Query** Which gives the smaller % dose/organ number: P or Q ? State the label of the item chosen.
**Result** Q

====

Test: Biodistribution in ICR mice after an iv injection
Assay type: in vivo
Settings: Liver, 1 hr after iv injection
experimental.endpoint: % dose/organ (% dose/organ)

Past entries and their recorded results:
CNc1ccc(-c2ccc3nc(OCCOCCOCC[18F])ccc3c2)cc1 [[^18F]34a]
11.8
CNc1ccc(-c2ccc3cc(OCCOCCOCCF)ccc3c2)cc1
16.3

[a] CNc1ccc2cc(-c3ccc(OCCOCCOCC[18F])cc3)ccc2c1 [[^18F]19a]
[b] CN(C)c1ccc(-c2ccc3nc(OCCOCCOCC[18F])ccc3c2)cc1 [[^18F]32a]
**Query** Please state the entry with greater % dose/organ among a and b . Write down the label attached to your selection.
**Result** a
(a: 15.7 % dose/organ, b: 9.75 % dose/organ)
